Assay: Half life in rat at 2 mg/kg, iv by LC/MS/MS analysis
Format: ADME, organism-based
Parameters: dose 2 mg/kg, route intravenous
Conditions: in vivo
READOUT_NAME: half-life (min)
Please state the figure in min; there is no need to write the unit.

Query block: I have this compound here, CC[C@@H]1C[C@]1(NC(=O)[C@@H]1C[C@@H]2CN1C(=O)[C@H](C(C)(C)C)NC(=O)OCC(C)(C)CCCCc1cccc3c1CN(C3)C(=O)O2)C(=O)NS(=O)(=O)C1CC1 , and I need its recorded half-life.
Result block: 54

----------
Test system: Hepatitis C virus
Assay: Antiviral activity against Hepatitis C virus genotype 1b infected in […] cell by cell-based HCV replicon assay in presence of 50% normal human serum
Assay type: functional, organism-based, Hepacivirus hominis
Here, each record is paired with measured EC50 data.
Please give a number only; it is taken to be in nM.

* CC(C)(C)NC(=O)N[C@H](C(=O)N1C[C@H]2[C@@H]([C@H]1C(=O)NC(CC1CCC1)C(=O)C(N)=O)C2(C)C)C(C)(C)C (some centres undefined) | 1180
* CCC[C@H](NC(=O)[C@@H]1[C@H]2CCC[C@H]2CN1C(=O)[C@@H](NC(=O)[C@@H](NC(=O)c1cnccn1)C1CCCCC1)C(C)(C)C)C(=O)C(=O)NC1CC1 | 8600
* CC[C@@H]1C[C@]1(NC(=O)[C@@H]1C[C@@H]2CN1C(=O)[C@H](C(C)(C)C)NC(=O)OCC(C)(C)CCCCc1cccc3c1CN(C3)C(=O)O2)C(=O)NS(=O)(=O)C1CC1 | 13

The record that follows has no EC50 shown yet.
Query block: Name the recorded EC50 for COc1ccc2c(O[C@@H]3C[C@H]4C(=O)N[C@]5(C(=O)O)C[C@H]5/C=C\CCCCC[C@H](NC(=O)OC5CCCC5)C(=O)N4C3)cc(-c3csc(NC(C)C)n3)nc2c1 .
Result block: 17

----------
Test: Half life in rhesus monkey at 2 mg/kg, iv by LC/MS/MS analysis
Format: ADME, organism-based, Macaca mulatta
Design: dose 2 mg/kg, route intravenous
Conditions: in vivo
READOUT_NAME: half-life (h)
// return numeric value only (unit: h, not printed)

Query block: Can you look up the measured half-life of CC[C@@H]1C[C@]1(NC(=O)[C@@H]1C[C@@H]2CN1C(=O)[C@H](C(C)(C)C)NC(=O)OCC(C)(C)CCCCc1cccc3c1CN(C3)C(=O)O2)C(=O)NS(=O)(=O)C1CC1 [VANIPREVIR] for me?
Result block: 1.3

----------
Assay: AUC (0-24 hrs) in rat at 2 mg/kg, iv by LC/MS/MS analysis
Format: ADME, organism-based
Set-up: time < 24 hr, dose 2 mg/kg, route intravenous
Details: plasma
READOUT_NAME: AUC(0-t) at 24 h
Put down the number, then write its unit next to it.

Query block: Fill in: AUC(0-t) at 24 h of CC[C@@H]1C[C@]1(NC(=O)[C@@H]1C[C@@H]2CN1C(=O)[C@H](C(C)(C)C)NC(=O)OCC(C)(C)CCCCc1cccc3c1CN(C3)C(=O)O2)C(=O)NS(=O)(=O)C1CC1 [VANIPREVIR] is ___
Result block: 600 nM·h

----------
Experiment: Plasma clearance in rat at 2 mg/kg, iv by LC/MS/MS analysis
Assay type: ADME, organism-based
Set-up: dose 2 mg/kg, route intravenous
READOUT_NAME: clearance (mL/min/kg)
Just the number please, in mL/min/kg, no unit attached.

Query block: Look up clearance for this compound: CC[C@@H]1C[C@]1(NC(=O)[C@@H]1C[C@@H]2CN1C(=O)[C@H](C(C)(C)C)NC(=O)OCC(C)(C)CCCCc1cccc3c1CN(C3)C(=O)O2)C(=O)NS(=O)(=O)C1CC1 [VANIPREVIR]
Result block: 74
